Molecular target: Cyclooxygenase (Rattus norvegicus, UniProt P35355+Q63921)
Assay: In vitro inhibition of PGE-2 production was measured in rat blood
Type: functional

| molecule | IC50 |
| --- | --- |
| O=c1cc(-c2ccccc2)oc2cc(O)c(O)c(O)c12 [BAICALEIN] | 50 µM |
| O=c1c2ccccc2[nH]n1Cc1cccnc1Cl | 12 µM |
| NC1=NN(c2cccc(C(F)(F)F)c2)CC1 [BW-755C] | 5 µM |
| Cc1cncc(Cn2[nH]c3ccccc3c2=O)c1 | 81 µM |
| CC(Cc1ccc(O)c(O)c1)C(C)Cc1ccc(O)c(O)c1 (stereo unspecified) [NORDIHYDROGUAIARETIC ACID] | 30 µM |
| O=c1c2ccccc2[nH]n1Cc1ccncc1 | 280 µM |
